The measured values listed here are drawn from PubChem BioAssay (NCI).

Tested on: TK-10 renal
experiment-description: NCI-60 one-dose screen, 48 h (100 = growth as untreated, 0 = no growth, -100 = all killed)
reported-conditions: 10 µM unless noted
About 83,000 compounds went through this panel and 20% of them were active in at least one assay; those are over-represented in the sample as a whole.
metric-name: growth (%)
Give bare numbers, in %.

Your task in this section: give growth for each listed record.
1. CCOc1c(Cl)cc(CNC(C)C(O)c2ccccc2)cc1OC (stereo unspecified)
2. CC1CC=CCC12C(=O)NC(=S)NC2=O (stereo unspecified)
3. NC(=O)C(Cl)Cl
4. O=C(CF)N(O)c1ccc(/C=C/c2ccccc2)cc1
5. CCC(/C=C(C)/C=C/C(=O)c1c(O)c(-c2ccc(O)cc2)c[nH]c1=O)CO (stereo unspecified)
6. C[C@]12CCC(=O)CC1CC[C@@H]1C2CC[C@@]2(C)C1CC[C@@H]2OC(=O)CC[Se][Se]CCC(=O)O[C@H]1CCC2[C@@H]3CCC4CC(=O)CC[C@]4(C)C3CC[C@@]21C (stereo partly specified)

1: 90.5; 2: 103; 3: 98.7; 4: 67.4; 5: 130; 6: 77.4

Kindly give each listed record's growth.
1. CC1(CF)NC(=O)NC1=O (stereo unspecified)
2. CCOC(=O)Nc1cc(Cl)c([N+](=O)[O-])c(NC(=O)OCC)n1
3. COC(=O)C1CC2c3ccccc3C1c1ccccc12 (stereo unspecified)
4. c1ccc(-c2ccc3ccccc3[o+]2)cc1
5. COP(=S)(OC)Oc1ccc(SC)c(C)c1

1: 128; 2: 103; 3: 107; 4: 139; 5: 124
